# EXPERIMENTAL SYSTEM: T1, full-length human GPC3 (human, UniProt P51654 25-554)
# T1 construct: On CHO (DXB11) or SK-HEP-1 (SK-03) transfectants; also used here for the GPC3 on the hepatoma lines HepG2 and HuH-7; also called human glypican 3
# T1 sequence (P51654 25-554 limits assumed): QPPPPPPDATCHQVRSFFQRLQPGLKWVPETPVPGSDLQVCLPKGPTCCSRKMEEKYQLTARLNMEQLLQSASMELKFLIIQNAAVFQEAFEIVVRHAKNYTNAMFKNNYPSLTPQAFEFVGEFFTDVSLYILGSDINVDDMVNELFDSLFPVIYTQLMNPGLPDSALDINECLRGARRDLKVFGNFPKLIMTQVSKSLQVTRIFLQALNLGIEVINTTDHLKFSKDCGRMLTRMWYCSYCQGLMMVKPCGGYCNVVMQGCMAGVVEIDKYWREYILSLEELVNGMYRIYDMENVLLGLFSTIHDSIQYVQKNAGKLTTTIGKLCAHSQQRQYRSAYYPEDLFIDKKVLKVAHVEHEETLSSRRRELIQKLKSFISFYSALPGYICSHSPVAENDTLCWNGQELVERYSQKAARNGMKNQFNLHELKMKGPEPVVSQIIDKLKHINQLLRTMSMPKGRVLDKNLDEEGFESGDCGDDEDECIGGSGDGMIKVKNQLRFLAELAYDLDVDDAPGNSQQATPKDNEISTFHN
# ASSAY DETAILS: BIACORE; the form of GPC3 used is not given
PARAMETER MEASURED: koff
Numeric answer plus unit only.

Known results for binders:
Field koff (entry M18D4 (antibody, human IgG1, kappa, V domains shown, Mouse monoclonal from hybridoma) VH: EVQLQQSGTVLARPGASVKMSCKASGYTFTGYWMRWVKQRPGQGLEWIGAIYPGNSDTTYNQKFKGKAKLTAVTSVSTAYMELSSLTNEDSAVYYCSRSGDLTGGFAYWGQGTLVTVST VL: DIVMTQAAFSNPVTLGTSTSISCRSSKSLLHSNGITYLYWYLQKPGQSPQLLIYQMSNLASGVPDRFSSSGSGTDFTLRISRVEAEDVGVYYCAQNLELPYTFGSGTKLEIKR ) reads 0.000496 s⁻¹

Field koff (entry M5B9 (antibody, V domains shown, Mouse monoclonal from hybridoma) VH: EVQLQQSGTVLARPGASVKMSCKASGYTFTGYWMHWVKQRPGQGLEWIGAIYPGNSDTNYNQKFKGKAKLTAVTSASTAYMELSSLTNEDAAVYHCTRSGDLTGGLAYWGQGTLVTVSA VL: DIVMTQAAFSNPVTLGTSASISCRSSKSLLHSNGITYLYWFLQKPGQSPQLLIYQMSNLASGVPDRFSSSGSGTDFTLRISRVEAEDVGVYYCAQNLELPYTFGSGTKLEIK ) reads 0.00139 s⁻¹

New cases:
Field koff (entry L9G11 (antibody, V domains shown, Mouse monoclonal from hybridoma) VH: QVQLQQPGAELVKPGASVKLSCKASGYTFTSYWMHWVKQRPGQGLEWIGTIDPSDSETHYNLQFKDTATLTVDKSSSTAYMQLSSLTSEDSAVYYCIRGAFYSSYSYWAWFAYWGQGTLVTVSA VL: DIVLTQSPTSLAVSLGQSVTISCRASESVEYYGTSLMQWYQQKPGQPPKLLIYGASNVESGVPARFSGSGSGTDFSLNIHPVEEDDIAMYFCQQSRKVPYTFGSGTKLEIK ) reads 0.0014 s⁻¹
